assay: yeast display, Sf9 membrane polyspecificity reagent, FACS + sequencing; frameworks hold sequencing errors
QUANTITY_MEASURED: polyreactivity (PSR sort gate)

>  <SEQUENCE_CHAIN>
QVQLVESGGGLVQAGGSLRLSCAASGRTFRYYDMGWYRQAPGKEREFVAAITWRGGSTYYADSVKGRFTISRDYAKNTVYLQMNSLTPEDTAVYYCATDSLRLYGGKRDLYYWGQGTQVTVSS

>  <REPORTED_RESULT>
low polyreactivity

$$$$
>  <SEQUENCE_CHAIN>
QDQHVESGGGLVQAGGSLRLSSAASGFTFKGNAMGWYRQGPGKVMELVATITQSAGSTYYADSVKGRFSISRDNAKNTVYLQMNSLKPEDTGVYFCNADPITLYYYSWYNYWGQGTQVTVSS

>  <REPORTED_RESULT>
low polyreactivity

$$$$
>  <SEQUENCE_CHAIN>
QVQLVESGGGLVQAGGSLRLSCAPSGYIFYDNAMGWYRQAPGKEREFVAAITFSGDSTDYADSVKGRFTISRDNAKNTVYLQMNSLKPEDTAVYYFNTVYYRYYIELYFSSYDYWGQGTQVTVSS

>  <REPORTED_RESULT>
high polyreactivity

$$$$
>  <SEQUENCE_CHAIN>
QVHLVESGGGLVQAGGSLRLSCAASGRIFYGYAMGWYRQAPGKEREFVAAITVSAGSTYYADSVKGRFTISRDNAKNTVYLQMNSLKPEDTAVYYCAGENGSKEFDYWGQGTQVTVSS

>  <REPORTED_RESULT>
low polyreactivity

$$$$
>  <SEQUENCE_CHAIN>
QVQLVESGGGLVQAGGSLRLSCAASGSNFRYYAMGWYSPAPGKERELVAAISQSGGSTYSADSVKGRFTISRDNAKTTVYLQMNSLKPEDTAVYYCAARRVDTRGHVRYRYYYWGQGTQVTVSS

>  <REPORTED_RESULT>
high polyreactivity

$$$$
>  <SEQUENCE_CHAIN>
QVQLVESGGGLVQAGGSLRLSCAASGRIFWYNALGWYRQAPGKEREVVAAISWRGSRTYYADSVKGRFTISRDNAKNTVYLQMNSLKPEETAVYYCAAVIKWTKDDYWGQGTQVTVSS

>  <REPORTED_RESULT>
high polyreactivity

$$$$
>  <SEQUENCE_CHAIN>
QVQLVESGGGLVQAGGSLRLSCAATGITFGRNTMGWYRQAPGKERDLVAAIDSGGNTYADSVKGRFTISRDNAKNTVYLQMNSLKPEDTGVFYSAGDGGELSSYGYWGQGTQVTVSS

>  <REPORTED_RESULT>
low polyreactivity

$$$$
>  <SEQUENCE_CHAIN>
QVQLVESGGGLVQAGGSLRLSCAAYGFTFSRKAMGWYRPAPGKERELVAAISIRGGSTYYADSVKGRFTISRDNAKITVYLQMNSLKPEDTAVYYCAALYRPTDYDYWGQGTQVTVSS

>  <REPORTED_RESULT>
high polyreactivity

$$$$
>  <SEQUENCE_CHAIN>
QVQLVESGGGLVQAGGSLRLSCAASGSIFYNAMGWYRQAPGKERELVAAISQRGTRTYYADSVKGRFTISRDNAKKTVYLQMNSLKPEDTAVYYCNRGGWRQYDSWGQGTQVTVSS

>  <REPORTED_RESULT>
high polyreactivity

$$$$
>  <SEQUENCE_CHAIN>
QVQLVESGGGLVQAGGSLRLSCAASGRISAYNAMGWYRQAPGKERELVAGISTRTGSTYYADSVKGRFTISRDNAKNTVYLQMNSLKPEDTAVYYCAAYFWGVYFFGMDYWGQGTQVTVSS

>  <REPORTED_RESULT>
low polyreactivity

$$$$
>  <SEQUENCE_CHAIN>
QVQLVESGGGLVQAGGSLRLSCAASGITFHVNAMGWYRQAPGKERELVARITTSGGSTSYADSVKGRFTISRDNAKNTVYLQMNSLKPEDTAVYYCAADLARYYSEYDYWGQGTQVTVSS

>  <REPORTED_RESULT>
low polyreactivity

$$$$
